System: K562
Measurement Protocol: Induction of apoptosis in human K562 cells assessed as caspase 3 level after 72 hrs by Western blotting method (reference value: 17.05%)
Type: functional
Metric: Activity (%)
Write it as a number; the unit % goes unstated.

Data request: Could you tell me which Activity is on file for `CC(=O)N[C@@H]1[C@H](O)[C@@H](CO)O[C@H]1c1nc(C(N)=O)cs1` ?
Data returned: 93.75

Data request: Could you tell me which Activity is on file for `[N-]=[N+]=N[C@@H]1[C@H](O)[C@@H](CO)O[C@H]1c1nc(C(N)=O)cs1` ?
Data returned: 34.23

Data request: Could you tell me which Activity is on file for `NC(=O)c1csc([C@@H]2O[C@H](CO)[C@@H](O)[C@H]2N)n1` ?
Data returned: 38.2

Data request: Could you tell me which Activity is on file for `NC(=O)c1csc([C@@H]2O[C@H](CO)[C@@H](O)[C@H]2NC(=O)c2ccccc2)n1` ?
Data returned: 27.61

Data request: Could you tell me which Activity is on file for NC(=O)c1csc([C@@H]2O[C@H](CO)[C@@H](O)[C@H]2O)n1 [TIAZOFURIN] ?
Data returned: 15.38

Data request: Could you tell me which Activity is on file for `Cl.NC(=O)c1csc([C@@H]2O[C@H](CO)[C@@H](O)[C@H]2N)n1` ?
Data returned: 11.52

Data request: Could you tell me which Activity is on file for `COc1cccc(C(=O)N[C@@H]2[C@H](O)[C@@H](CO)O[C@H]2c2nc(C(N)=O)cs2)c1` ?
Data returned: 82.68

---

System: K562
Measurement Protocol: Induction of apoptosis in human K562 cells assessed as late apoptotic cells after 72 hrs by annexin V-FITC/propidium iodide staining based flow cytometry (reference value: 5.24%)
Type: functional
For each record, write down the corresponding Activity.
Express your answer as a number followed by its unit.

Data request: Could you tell me which Activity is on file for `[N-]=[N+]=N[C@@H]1[C@H](O)[C@@H](CO)O[C@H]1c1nc(C(N)=O)cs1` ?
Data returned: 74.34%

Data request: Could you tell me which Activity is on file for `COc1cccc(C(=O)N[C@@H]2[C@H](O)[C@@H](CO)O[C@H]2c2nc(C(N)=O)cs2)c1` ?
Data returned: 69.98%

Data request: Could you tell me which Activity is on file for `CC(=O)N[C@@H]1[C@H](O)[C@@H](CO)O[C@H]1c1nc(C(N)=O)cs1` ?
Data returned: 62.01%

Data request: Could you tell me which Activity is on file for `NC(=O)c1csc([C@@H]2O[C@H](CO)[C@@H](O)[C@H]2O)n1` ?
Data returned: 15.58%

Data request: Could you tell me which Activity is on file for `Cl.NC(=O)c1csc([C@@H]2O[C@H](CO)[C@@H](O)[C@H]2N)n1` ?
Data returned: 66.3%

Data request: Could you tell me which Activity is on file for `NC(=O)c1csc([C@@H]2O[C@H](CO)[C@@H](O)[C@H]2N)n1` ?
Data returned: 66.51%

Data request: Could you tell me which Activity is on file for `NC(=O)c1csc([C@@H]2O[C@H](CO)[C@@H](O)[C@H]2NC(=O)c2ccccc2)n1` ?
Data returned: 80.99%

---

For each record, write down the corresponding Activity.
Tested on: K562
Measurement Protocol: Induction of apoptosis in human K562 cells assessed as cleaved PARP level after 72 hrs by Western blotting method (reference value: 18.36%)
Assay type: functional
Write it as a number; the unit % goes unstated.

Data request: Could you tell me which Activity is on file for `Cl.NC(=O)c1csc([C@@H]2O[C@H](CO)[C@@H](O)[C@H]2N)n1` ?
Data returned: 24.41

Data request: Could you tell me which Activity is on file for `[N-]=[N+]=N[C@@H]1[C@H](O)[C@@H](CO)O[C@H]1c1nc(C(N)=O)cs1` ?
Data returned: 70.23

Data request: Could you tell me which Activity is on file for `NC(=O)c1csc([C@@H]2O[C@H](CO)[C@@H](O)[C@H]2NC(=O)c2ccccc2)n1` ?
Data returned: 63.83

Data request: Could you tell me which Activity is on file for `COc1cccc(C(=O)N[C@@H]2[C@H](O)[C@@H](CO)O[C@H]2c2nc(C(N)=O)cs2)c1` ?
Data returned: 37.39

Data request: Could you tell me which Activity is on file for `CC(=O)N[C@@H]1[C@H](O)[C@@H](CO)O[C@H]1c1nc(C(N)=O)cs1` ?
Data returned: 33.66

Data request: Could you tell me which Activity is on file for `NC(=O)c1csc([C@@H]2O[C@H](CO)[C@@H](O)[C@H]2N)n1` ?
Data returned: 11.32

Data request: Could you tell me which Activity is on file for `NC(=O)c1csc([C@@H]2O[C@H](CO)[C@@H](O)[C@H]2O)n1` ?
Data returned: 44.51
